The reported numbers originate from paper PMC9144145.

- runDescription: GLP toxicokinetic study in anesthetized rabbits, plasma oxytocin by LC-MS/MS
- Assay type: in vivo
- conditionNotes: plasma; rabbit, IM, 10 IU, linear trapezoidal, mean, n = 8
propertyLabel: AUC(0-t) (ng·h/mL)

compound | experimentalResult
CC[C@H](C)[C@@H]1NC(=O)[C@H](Cc2ccc(O)cc2)NC(=O)[C@@H](N)CSSC[C@@H](C(=O)N2CCC[C@H]2C(=O)N[C@@H](CC(C)C)C(=O)NCC(N)=O)NC(=O)[C@H](CC(N)=O)NC(=O)[C@H](CCC(N)=O)NC1=O [Intramuscular (Control), Oxytocin] | 4.82

* * *

- runDescription: GLP toxicokinetic study in anesthetized rabbits, plasma oxytocin by LC-MS/MS
- Assay type: in vivo
- conditionNotes: rabbit, IM, 10 IU, plasma, LC-MS/MS, mean ± SD, n = 8; SD

compound | readingUnit | Tmax
CC[C@H](C)[C@@H]1NC(=O)[C@H](Cc2ccc(O)cc2)NC(=O)[C@@H](N)CSSC[C@@H](C(=O)N2CCC[C@H]2C(=O)N[C@@H](CC(C)C)C(=O)NCC(N)=O)NC(=O)[C@H](CC(N)=O)NC(=O)[C@H](CCC(N)=O)NC1=O [Intramuscular (Control), Oxytocin] | h | 1.13
